Assayed target: Prothrombin (Homo sapiens) (UniProt P00734)
Protocol details: Inhibition of thrombin (unknown origin) using Boc-Val-Pro-Arg-AMC as substrate at 25 uM preincubated with protein for 15 mins followed by substrate addition measured for 10 mins by continuous fluorimetric assay relative to control
The source made the active and inactive calls. No cut-off for these calls is given here.
Measured quantity: inhibition

Past entries and their recorded results:
> print(dat)
                               record.smiles    result
 1  N=C(N)NCCC[C@H](NC(=O)c1cc2sccc2s1)C(=O)N[C@@H](CCCCN)C(=O)N[C@@H](C(N)=O)c1ccc(OCc2ccc(Cl)cc2)cc1  inactive
 2  N=C(N)NCCC[C@H](NC(=O)c1cscn1)C(=O)N[C@@H](CCCCN)C(=O)N[C@@H](C(N)=O)c1ccc(OCc2ccccc2)cc1     < 30%
 3  N=C(N)NCCC[C@H](NC(=O)c1ccccc1)C(=O)N[C@@H](CCCCN)C(=O)N[C@@H](C(N)=O)c1ccc(OCc2ccc(Cl)cc2)cc1     < 30%
 4  N=C(N)NCCC[C@H](NC(=O)c1cccs1)C(=O)N[C@@H](CCCCN)C(=O)N[C@@H](C(N)=O)c1ccc(OCc2ccccc2)cc1     < 30%
 5  N=C(N)NCCC[C@H](NC(=O)c1cc2sccc2s1)C(=O)N[C@@H](CCCCN)C(=O)N[C@@H](C(N)=O)c1ccc(OCc2ccccc2C(F)(F)F)cc1  inactive
 6  Cc1cccc(COc2ccc([C@@H](NC(=O)[C@H](CCCCN)NC(=O)[C@H](CCCNC(=N)N)NC(=O)c3ccccc3)C(N)=O)cc2)c1     < 30%
 7  N=C(N)NCCC[C@H](NC(=O)c1ccccc1)C(=O)N[C@@H](CCCCN)C(=O)N[C@@H](C(N)=O)c1ccc(OCc2ccccc2C(F)(F)F)cc1     < 30%
 8  N=C(N)NCCC[C@H](NC(=O)c1ccccc1)C(=O)N[C@@H](CCCCN)C(=O)N[C@@H](C(N)=O)c1ccc(OCc2ccc(Cl)c(Cl)c2)cc1     < 30%
 9  N=C(N)NCCC[C@H](NC(=O)c1ccc(Cl)s1)C(=O)N[C@@H](CCCCN)C(=O)N[C@@H](C(N)=O)c1ccc(OCc2ccccc2)cc1     < 30%
10  N=C(N)NCCC[C@H](NC(=O)c1ccccc1)C(=O)N[C@@H](CCCCN)C(=O)N[C@@H](C(N)=O)c1ccc(OCc2ccc(N)cc2)cc1     < 30%

IN: Output measured inhibition for this item: `N=C(N)NCCC[C@H](NC(=O)C1CCCC1)C(=O)N[C@@H](CCCCN)C(=O)N[C@@H](C(N)=O)c1ccc(OCc2ccccc2)cc1`
OUT: < 30%

IN: Output measured inhibition for this item: `Cc1ccc(C(=O)N[C@@H](CCCNC(=N)N)C(=O)N[C@@H](CCCCN)C(=O)N[C@@H](C(N)=O)c2ccc(OCc3ccccc3)cc2)s1`
OUT: < 30%

IN: Output measured inhibition for this item: `N=C(N)NCCC[C@H](NC(=O)c1ccccc1)C(=O)N[C@@H](CCCCN)C(=O)N[C@@H](C(N)=O)c1ccc(OCc2ccccc2)cc1`
OUT: < 30%

* * *

Protocol details: Half life in Sprague-Dawley rat liver microsomes incubated for 30 mins by UV-HPLC method
Type: ADME
Measured quantity: half-life (h)
Number only, in h; omit the unit.

IN: Output measured half-life for this item: `N=C(N)NCCC[C@H](NC(=O)c1nccs1)C(=O)N[C@@H](CCCCN)C(=O)N[C@@H](C(N)=O)c1ccc(OCc2ccc(C(F)(F)F)cc2)cc1`
OUT: 0.75

IN: Output measured half-life for this item: `COc1cccc(COc2ccc([C@@H](NC(=O)[C@H](CCCCN)NC(=O)[C@H](CCCNC(=N)N)NC(=O)c3cccs3)C(N)=O)cc2)c1`
OUT: 1.55

IN: Output measured half-life for this item: `COc1cccc(COc2ccc([C@@H](NC(=O)[C@H](CCCCN)NC(=O)[C@H](CCCNC(=N)N)NC(=O)c3ccc(-c4cccs4)s3)C(N)=O)cc2)c1`
OUT: 2.92

* * *

Protocol details: Inhibition of West Nile virus NS2B-NS3 protease using 2-Abz-Gly-Leu-Lys-Arg-Gly-Gly-[…]-Tyr-NH2 as substrate preincubated with protein for 15 mins followed by substrate addition measured for 15 mins by FRET assay
Could you please report measured pIC50 for the items listed next?
Quick note: pIC50 means taking -log10 of the concentration in moles per liter.

IN: Output measured pIC50 for this item: `N=C(N)NCCC[C@H](NC(=O)c1ccccc1)C(=O)N[C@@H](CCCCN)C(=O)N[C@@H](C(N)=O)c1ccc(OCc2ccc(C(F)(F)F)cc2)cc1`
OUT: 6.65

IN: Output measured pIC50 for this item: `N=C(N)NCCC[C@H](NC(=O)C1CCC1)C(=O)N[C@@H](CCCCN)C(=O)N[C@@H](C(N)=O)c1ccc(OCc2ccccc2)cc1`
OUT: 6.36

IN: Output measured pIC50 for this item: `N=C(N)NCCC[C@H](NC(=O)c1ccccc1)C(=O)N[C@@H](CCCCN)C(=O)N[C@@H](C(N)=O)c1ccc(OCc2ccccc2)cc1`
OUT: 6.14

IN: Output measured pIC50 for this item: `COc1cccc(COc2ccc([C@@H](NC(=O)[C@H](CCCCN)NC(=O)[C@H](CCCNC(=N)N)NC(=O)c3ccccc3)C(N)=O)cc2)c1`
OUT: 6.09

IN: Output measured pIC50 for this item: `N=C(N)NCCC[C@H](NC(=O)c1ccc(-c2cccs2)s1)C(=O)N[C@@H](CCCCN)C(=O)N[C@@H](C(N)=O)c1ccc(OCc2ccc(Cl)c(Cl)c2)cc1`
OUT: 6.44

IN: Output measured pIC50 for this item: `COc1cccc(COc2ccc([C@@H](NC(=O)[C@H](CCCCN)NC(=O)[C@H](CCCNC(=N)N)NC(=O)c3cccs3)C(N)=O)cc2)c1`
OUT: 6.64

IN: Output measured pIC50 for this item: `N=C(N)NCCC[C@H](NC(=O)c1cscn1)C(=O)N[C@@H](CCCCN)C(=O)N[C@@H](C(N)=O)c1ccc(OCc2ccccc2)cc1`
OUT: 6.46

IN: Output measured pIC50 for this item: `N=C(N)NCCC[C@H](NC(=O)C1CC1)C(=O)N[C@@H](CCCCN)C(=O)N[C@@H](C(N)=O)c1ccc(OCc2ccccc2)cc1`
OUT: 5.78

IN: Output measured pIC50 for this item: `N=C(N)NCCC[C@H](NC(=O)c1ccco1)C(=O)N[C@@H](CCCCN)C(=O)N[C@@H](C(N)=O)c1ccc(OCc2ccccc2)cc1`
OUT: 6.29

IN: Output measured pIC50 for this item: `N=C(N)NCCC[C@H](NC(=O)c1cc(-c2ccccc2)cs1)C(=O)N[C@@H](CCCCN)C(=O)N[C@@H](C(N)=O)c1ccc(OCc2ccccc2)cc1`
OUT: 6.40

IN: Output measured pIC50 for this item: `N=C(N)NCCC[C@H](NC(=O)c1nccs1)C(=O)N[C@@H](CCCCN)C(=O)N[C@@H](C(N)=O)c1ccc(OCc2c(Cl)cccc2Cl)cc1`
OUT: 6.78

IN: Output measured pIC50 for this item: `N=C(N)NCCC[C@H](NC(=O)c1cccs1)C(=O)N[C@@H](CCCCN)C(=O)N[C@@H](C(N)=O)c1ccc(OCc2ccc(F)cc2)cc1`
OUT: 6.67

* * *

Protocol details: Inhibition of Dengue virus serotype-2 NS2B-NS3 protease using 2-Abz-Nle-Lys-Arg-Arg-Ser-(3-NO2)-Tyr-NH2 as substrate preincubated with protein for 15 mins followed by substrate addition measured for 15 mins by FRET assay
Parameters: species or system dengue virus type 2
Measured quantity: IC50 (nM)
Number only, in nM; omit the unit.

IN: Output measured IC50 for this item: `N#Cc1ccc(COc2ccc([C@@H](NC(=O)[C@H](CCCCN)NC(=O)[C@H](CCCNC(=N)N)NC(=O)c3ccccc3)C(N)=O)cc2)cc1`
OUT: 399

IN: Output measured IC50 for this item: `Cc1cccc(COc2ccc([C@@H](NC(=O)[C@H](CCCCN)NC(=O)[C@H](CCCNC(=N)N)NC(=O)c3ccccc3)C(N)=O)cc2)c1`
OUT: 309

IN: Output measured IC50 for this item: `N=C(N)NCCC[C@H](NC(=O)c1cc2ccccc2s1)C(=O)N[C@@H](CCCCN)C(=O)N[C@@H](C(N)=O)c1ccc(OCc2ccc(C(F)(F)F)cc2)cc1`
OUT: 199

IN: Output measured IC50 for this item: `N=C(N)NCCC[C@H](NC(=O)c1cc(-c2ccccc2)cs1)C(=O)N[C@@H](CCCCN)C(=O)N[C@@H](C(N)=O)c1ccc(OCc2ccccc2)cc1`
OUT: 304

IN: Output measured IC50 for this item: `N=C(N)NCCC[C@H](NC(=O)c1cccs1)C(=O)N[C@@H](CCCCN)C(=O)N[C@@H](C(N)=O)c1ccc(OCc2ccccc2)cc1`
OUT: 109

IN: Output measured IC50 for this item: `N=C(N)NCCC[C@H](NC(=O)CCc1ccccc1)C(=O)N[C@@H](CCCCN)C(=O)N[C@@H](C(N)=O)c1ccc(OCc2ccccc2)cc1`
OUT: 906
